All values here come from patent US4558134A.

The entries below come with measured EC50 values attached.
test system: rhinovirus type 1A (RV-1A); assay: Tissue culture testing, reduction of viral cytopathic effect, RV-1A; type: cell-based; conditions: Enterovirus; HeLa cells; RV-1A; 48 and 72 hours; read-out: Lowest concentration of the compound necessary to cause a 50 percent reduction in cytopathic effect, RV-1A
The reply should be a number in µg/mL, with the unit left off.

Take a look at these entries with their results.
compound: C[S+]([O-])c1ccc(Oc2ccc(Cl)c(Cl)c2)nc1C#N (stereo not drawn)
observed: 12.5
--
compound: CCSc1ccc(Oc2ccc(Cl)c(Cl)c2)c(C#N)n1
observed: 2.5
--
compound: CS(=O)(=O)c1ccc(Oc2ccc(Cl)c(Cl)c2)nc1C#N
observed: 6.25
--
compound: C[S+]([O-])c1ccc(Oc2ccc(Cl)c(Cl)c2)nc1C(N)=O (stereo not drawn)
observed: 6.3
--
compound: CCCCSc1ccc(Oc2ccc(Cl)c(Cl)c2)nc1C#N
observed: 12.5
--
compound: CCSc1ccc(Oc2ccc(Cl)c(Cl)c2)nc1C#N
observed: 3.13
--
compound: CC[S+]([O-])c1ccc(Oc2ccc(Cl)c(Cl)c2)nc1C#N (stereo not drawn)
observed: 12.5
--
compound: CC(C)CSc1ccc(Oc2ccc(Cl)c(Cl)c2)c(C#N)n1
observed: 12.5
--
compound: CC(C)Sc1ccc(Oc2ccc(Cl)c(Cl)c2)c(C#N)n1
observed: 3.13
--
compound: CCC(C)Sc1ccc(Oc2ccc(Cl)c(Cl)c2)c(C#N)n1 (stereo not drawn)
observed: 6.25

The reported EC50 of the compound CCCSc1ccc(Oc2ccc(Cl)c(Cl)c2)c(C#N)n1 was 0.78

Item: CCSc1ccc(Oc2ccc(C(=O)c3ccccc3)cc2)nc1C#N | EC50: 25

Form field EC50, entry CSc1ccc(Oc2ccc(Cl)c(Cl)c2)nc1C#N : 25

Just so you know, measured EC50 for CCC(C)Sc1ccc(Oc2ccc(Cl)c(Cl)c2)nc1C#N (stereo not drawn) came out at 1.56

Lookup result for CC(C)CSc1ccc(Oc2ccc(Cl)c(Cl)c2)nc1C#N ; measured EC50: 12.5
